Test protocol: yeast transport mutant growth inhibition pilot in 384-well plates, post-Golgi transport modulator project (AID 636); also: test concentration not given here
Condition label: absorbance 615 nm, about 18 h, stronger effect = higher value
I'd appreciate it if you could supply inhibition values for the items below.
One number for each entry, in %.

{"Molecule": "CCOC(=O)c1nc2sc3c(c2c(=O)[nH]1)CCCC3", "Readout label": "inhibition", "Result units": "%", "Assay value": -2.31}
{"Molecule": "Cc1oc(-c2cccc(Cl)c2)nc1CN1CCC(C(=O)N2CCN(c3ccccc3F)CC2)CC1", "Readout label": "inhibition", "Result units": "%", "Assay value": -1.6}
{"Molecule": "CCS(=O)(=O)c1nc2ccccc2n1Cc1ccccc1Cl", "Readout label": "inhibition", "Result units": "%", "Assay value": -0.27}
{"Molecule": "CCN(CC)CCN1C(=O)c2oc3ccc(F)cc3c(=O)c2C1c1ccncc1 (stereo not given)", "Readout label": "inhibition", "Result units": "%", "Assay value": -3.2}
{"Molecule": "COc1ccccc1CNC(=O)CCn1c(=O)[nH]c2ccsc2c1=O", "Readout label": "inhibition", "Result units": "%", "Assay value": -7.97}

Provide reported inhibition for each item, in the same order as listed.
1. Cn1c(=O)c2c(nc3sccn32)n(C)c1=O
2. CCOC(=O)C(C(=O)OCC)C(C)C#CCN1CCCCC1 (stereo not given)
3. CCOC(=O)/C=C1\CC(=O)Nc2nonc2N1

Reply:
[-3.51, -3.08, -1.73]

Report inhibition for each item below.
1. O=C1c2ccccc2C(Nc2cccnc2)N1Cc1ccccc1Cl (stereo not given)
2. COC(=O)Cc1cc(=O)[nH]c(Nc2nc3ccccc3o2)n1
3. O=C(NCCOC(=O)C1COc2ccccc2O1)C1COc2ccccc2O1 (stereo not given)
4. O=C(CSc1ccc2nnc(-c3ccccc3)n2n1)N1CCN(c2ccccc2)CC1
5. Cc1c(C(=O)NC2CC2)oc2ccc(S(=O)(=O)N3CCCCCC3)cc12
6. CN(C(=O)c1ccco1)c1nnc(C23CC4CC(CC(C4)C2)C3)s1
7. CC(=O)NCCc1nc2ccccc2[nH]1
8. Oc1ccc(Cl)cc1-c1cc(-c2ccccc2)n[nH]1

Reply:
-3.2
-1.03
-6.76
-0.13
-0.81
-3.73
-5.2
-0.53

// each molecule listed below needs its inhibition
1. CCOC(=O)c1cccc(NC(=O)CNS(=O)(=O)c2cccs2)c1
2. Nc1nc(N2CCCCC2)nc(N(c2ccccc2)c2ccccc2)n1
3. COc1ccc(-c2nnc3sc(C(C)N4C(=O)c5ccccc5C4=O)nn23)cc1 (stereo not given)
4. Cc1ccc(Cn2c(CN3CCOCC3)nc3c2c(=O)n(C)c(=O)n3C)cc1
5. CC1(C)CC(=O)C(C=NCCO)=C(O)C1
6. CC1CCN(C(=O)Cn2cc3c(n2)CCCC3)CC1
7. O=c1c2ccccc2nc2n1CCN2

Reply:
-8.36
-5.2
2.13
-5.14
-6.08
6.67
-0.93

Could you tell me inhibition for each of these molecules? They are listed below.
1. Cc1cc(NC(=O)COc2cccc(C)c2C)no1
2. Cc1cc2ncn(C(=O)N3CCOCC3)c2cc1C
3. COc1ccc2[nH]c(C)c(CCN3C(=O)OC(C)(C)C3(C)O)c2c1 (stereo not given)
4. O=C(CC1Oc2ccccc2NC1=O)NCCCN1CCOCC1 (stereo not given)

Reply:
1: -0.53; 2: -2.47; 3: -5.73; 4: -5.07

Source: PubChem BioAssay
